- target: T1, macaque CD37 (macaque, UniProt P11049 1-277 (human entry))
- T1 construct: Expressed on 300-19 cells transfected with pSRa-CD37mac (300-19/CD37mac cells); also called macaca CD37; macaque derived CD37 antigen
- T1 chain: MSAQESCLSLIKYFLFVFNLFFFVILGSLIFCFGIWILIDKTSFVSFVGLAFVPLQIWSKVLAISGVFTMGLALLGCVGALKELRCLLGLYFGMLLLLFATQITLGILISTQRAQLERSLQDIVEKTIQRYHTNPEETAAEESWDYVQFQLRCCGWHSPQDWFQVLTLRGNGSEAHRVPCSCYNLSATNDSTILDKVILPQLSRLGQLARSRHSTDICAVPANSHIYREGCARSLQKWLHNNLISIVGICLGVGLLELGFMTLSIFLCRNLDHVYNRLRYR
- assay_remarks: flow cytometry, 300-19/CD37mac cells

- binder: "muCD37-56 (antibody, mouse IgG1, kappa, V domains shown, Murine hybridoma antibody) VH: DVQLQESGPDLVKPSQSLSLTCTVTGYSITSGFAWHWIRQFPGNKLEWMGYIHYSGGTNYNPSLKSRVSITRDTSKNQFFLQLNSVTTEDTATYYCARGYYGFGAWFAYWGQGTLVPVSA VL: QIVLTQSPAFMSASPGDKVTMTCSASSSVTYMHWYQQKSGTSPKRWIYDTSKLASGVPARFSGGGSGTSYSLTISTMEAEDAATYYCQQWISDPPTFGGGTKLEIKR"
  binding result: "binds"
- binder: "muCD37-57 (antibody, mouse IgG2a, kappa, V domains shown, Murine hybridoma antibody) VH: DVQLQESGPDLLKPSQSLSLTCTVTGYSITSGFAWHWIRQFPGNKLEWMGYILYSGSTVYSPSLKSRISITRDTSKNQFFLQLNSVTTEDTATYYCARGYYGYGAWFAYWGQGTLVTVSA VL: QIVLTQSPAIMSASPGEKVTMTCSATSSVTYMHWYQQKSGTSPKRWIYDTSKLASGVPARFSGSGSGTSYSLTISSMEAEDAATYYCQQWSDNPPTFGSGTKLEIKR"
  binding result: "binds"
